# system-tested: MUTE (Arabidopsis thaliana)
# Construct: MUTE (1-202); made in house; host or cells: E. coli BL21
# Sequence (Q9M8K6 whole entry): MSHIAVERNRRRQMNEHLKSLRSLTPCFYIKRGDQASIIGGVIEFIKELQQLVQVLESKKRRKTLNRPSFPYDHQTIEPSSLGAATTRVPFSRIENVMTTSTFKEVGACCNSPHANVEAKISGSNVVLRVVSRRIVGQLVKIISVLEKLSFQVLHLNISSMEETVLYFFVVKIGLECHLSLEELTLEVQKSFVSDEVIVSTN
# experiment-summary: ITC direct binding
# Design: species or system A. thaliana
parameter-measured: pKd
Numbers only, as −log10 of the molar value.

I have this compound here, O=C1C(c2ccccc2)=NC(NS(=O)(=O)c2ccccc2)(c2ccccc2)N1S(=O)(=O)c1ccccc1 (stereo not shown) [Stomidazolone] , and I need its recorded pKd.
5.11
